Overview of reported activity at 15 min, 50 µM across a group of molecules:
target.of.assay: UGT1A10 (Homo sapiens, UniProt Q9HAW8)
Sequence (Q9HAW8 26-530): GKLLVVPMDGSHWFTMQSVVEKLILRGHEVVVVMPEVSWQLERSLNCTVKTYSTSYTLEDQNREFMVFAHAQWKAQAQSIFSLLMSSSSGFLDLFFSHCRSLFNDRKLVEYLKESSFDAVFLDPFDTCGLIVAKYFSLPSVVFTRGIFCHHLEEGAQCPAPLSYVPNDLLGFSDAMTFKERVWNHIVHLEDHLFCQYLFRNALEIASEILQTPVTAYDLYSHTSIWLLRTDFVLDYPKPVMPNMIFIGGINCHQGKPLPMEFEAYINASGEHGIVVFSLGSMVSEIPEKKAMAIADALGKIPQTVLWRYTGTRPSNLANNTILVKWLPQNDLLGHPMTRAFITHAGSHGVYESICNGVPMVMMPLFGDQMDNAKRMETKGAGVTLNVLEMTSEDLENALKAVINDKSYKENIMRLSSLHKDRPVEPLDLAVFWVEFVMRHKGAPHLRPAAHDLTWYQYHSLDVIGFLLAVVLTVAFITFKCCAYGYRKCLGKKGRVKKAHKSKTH
test.name: Inhibition of raloxifene glucuronidation by recombinant UGT1A10 Bacculosomes
test.conditions: human, Bacculosomes with recombinant human UGT1A10, pH 7.5, probe raloxifene 50 μM, formation of glucuronide G1, % of control metabolism, raloxifene G1, UGT1A10; inhibitor 50 μM
Numbers only here, please. The scale is %.

Please review the following examples before continuing.
CC/C(=C(/CC)c1ccc(O)cc1)c1ccc(O)cc1 [Diethylstilbestrol, reference compound]; 50
CCCCCCCCOC(=O)c1cc(O)c(O)c(O)c1 [Octyl gallate]; 63
O=C(OC[C@H]1O[C@@H](OC(=O)c2cc(O)c(O)c(OC(=O)c3cc(O)c(O)c(O)c3)c2)[C@H](OC(=O)c2cc(O)c(O)c(OC(=O)c3cc(O)c(O)c(O)c3)c2)[C@@H](OC(=O)c2cc(O)c(O)c(OC(=O)c3cc(O)c(O)c(O)c3)c2)[C@@H]1OC(=O)c1cc(O)c(O)c(OC(=O)c2cc(O)c(O)c(O)c2)c1)c1cc(O)c(O)c(OC(=O)c2cc(O)c(O)c(O)c2)c1; 10

Now for another entry.
Returns the measured activity at 15 min, 50 µM for the input molecule. Input: O=C(O[C@@H]1Cc2c(O)cc(O)cc2O[C@H]1c1cc(O)c(O)c(O)c1)c1cc(O)c(O)c(O)c1 [Gallocatechin gallate] 49

Where do the numbers come from? From patent US20030215462A1.
